Sourced from patent US20220125947A1

# studySystem: T1, T cell receptor (TCR) Vγ9 (TRGV9) (human, UniProt Q99603 21-122); also: unit not given here
# T1 sequence (looked up): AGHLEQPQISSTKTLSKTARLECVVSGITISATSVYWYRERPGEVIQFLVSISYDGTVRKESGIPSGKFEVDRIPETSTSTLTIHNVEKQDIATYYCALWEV
# testDetails: cell-based or functional assay
Each record here notes measured TNFα, Luminex (supernatant).
Just the number.

[[record]]
binder = "VG9B54 (antibody, human IgG1, kappa, V domains shown) VH: EVQLVESGGGLVKPGGSLRLSCAASGFAFSSYSLTWVRQAPGKGLEWVSSISSSSSYIFYADSVKGRFTISRDNAKNSLYLQMNSLRAEDTAVYYCATDGELGPFDYWGQGTTVTVSS VL: EIVMTQSPGTLSLSPGERATLSCRASQSVSSSYLAWFQQKPGQAPRRLIYGASSRATGIPDRFSGSGSGTDFTLTISRLEPEDFAVYYCQQYGRSPLTFGGGTKVEIKR"
reportedproperty = "TNFα, Luminex (supernatant)"
readoutnumber = 6100


Consider VG9B121 (antibody, human IgG1, kappa, V domains shown) VH: EVQLVESGGGLVKPGGSLRLSCVASGFTFSDYAMDWVRQAPGKGLDWISSISSTSNYIFYADSVKGRFTISRDNAKNSLYLQMNSLRVEDSAVYYCANSYNWNYGGAFDIWGQGTMVTVSS VL: DIQMTQSPGTLSSSPGERATLSCRASQSVSSSYFAWYQQKPGRAPRLLIYGASSRATGIPDRFSGSGSGTDFTLTISRLEPEDFAVYFCQQYGRSPLTFGGGTKVEIKR . Its measured TNFα, Luminex (supernatant) is 96

Consider VG9B195 (antibody, human IgG1, lambda, V domains shown) VH: EVQLVESGGGLVKPGGSLRLSCAASGFTFSPYTMNWVRQAPGKGLEWVSSISSSSSYMYYADSVKGRFTISRDNAKNSLYLQMNSLRAEDTAVYYCARDGDLVGPTYYFDYWGQGTLVTVSS VL: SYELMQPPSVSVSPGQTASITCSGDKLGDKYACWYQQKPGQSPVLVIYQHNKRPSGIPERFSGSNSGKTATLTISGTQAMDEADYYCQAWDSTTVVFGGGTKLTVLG . Its measured TNFα, Luminex (supernatant) is 61

Consider VG9B80 (antibody, human IgG1, kappa, V domains shown) VH: EVQLVQSGGGLVKSGGSLRLSCAASGFTFSTYSMNWVRQAPGKGLEWVSSISSSSSYIFYADSVKGRIIISRDNAKNSLYLQMNSVRADDTAVYYCAKDGELGVFDYWGQGTLVTVSS VL: EIVLTQSPGTLSLSAGERATLSCRASQSISSSYLAWYQQKPGQAPRVLIYGPSGRATGIPDRFRGSGSGTDFTLTISRLEPEDFAVYYCQQFGRSPLTFGGGTKVEIKR . Its measured TNFα, Luminex (supernatant) is 4910

Consider VG9B46 (antibody, human IgG1, kappa, V domains shown) VH: EVQLVESGGGLVKPGGSLRLSCEASGFTFSINSMNWVRQAPGKGLEWVSSISSTSDYIFNADSVKGRFTISRDNAKNSLYLQMNSLRAEDTAVYYCVRDDVFGAFDIWGQGTMVTVSS VL: EIVLTQSPGTLSLSPGERATLSCRTSQSVSRSYLGWYQQKPGQPPRLLIFGSSSRATGIPDRFSGSGSGTDFTLTISRLEPEDFAVYYCQQYSRSPLTFGGGTKVDIKR . Its measured TNFα, Luminex (supernatant) is 5260
